Each record here notes measured Minimal inhibitory concentration SA^b.
Test system: S. aureus ATCC 29213
Assay type: cell-based, Staphylococcus aureus
run-parameters: ATCC 29213, 18 h
Non-standard residues stand in square brackets, D forms with d. Residues, ends and D or L forms follow the SMILES beside them. N(4-F-Bzl)Gly = O=C(O)CNCc1ccc(F)cc1; NBzl(4-I)Gly = O=C(O)CNCc1ccc(I)cc1; Nphe = O=C(O)CNCc1ccccc1; Nlys = NCCCCNCC(=O)O
measured-endpoint: Minimal inhibitory concentration SA^b (µg/mL)

1) NCCCCNCC(=O)N(CC(=O)N(CCCCN)CC(=O)N(CC(=O)N(CCCCN)CC(=O)N(CC(=O)N(CCCCN)CC(=O)N(CC(=O)N(CCCCN)CC(=O)N(CC(N)=O)Cc1ccc(F)cc1)Cc1ccc(F)cc1)Cc1ccc(F)cc1)Cc1ccc(F)cc1)Cc1ccc(F)cc1 [Compound 20] (H-[Nlys][N(4-F-Bzl)Gly][Nlys][N(4-F-Bzl)Gly][Nlys][N(4-F-Bzl)Gly][Nlys][N(4-F-Bzl)Gly][Nlys][N(4-F-Bzl)Gly]-NH2) :: 64
2) NCCCCNCC(=O)N(CC(=O)N(CCCCN)CC(=O)N(CC(=O)N(CCCCN)CC(=O)N(CC(N)=O)Cc1ccc(I)cc1)Cc1ccccc1)Cc1ccc(I)cc1 [Compound 9] (H-[Nlys][NBzl(4-I)Gly][Nlys][Nphe][Nlys][NBzl(4-I)Gly]-NH2) :: 16
3) NCCCCNCC(=O)N(CC(=O)N(CCCCN)CC(=O)N(CC(=O)N(CCCCN)CC(=O)N(CC(=O)N(CCCCN)CC(=O)N(CC(=O)N(CCCCN)CC(=O)N(CC(N)=O)Cc1ccc(I)cc1)Cc1ccc(I)cc1)Cc1ccc(I)cc1)Cc1ccc(I)cc1)Cc1ccc(I)cc1 [Compound 23] (H-[Nlys][NBzl(4-I)Gly][Nlys][NBzl(4-I)Gly][Nlys][NBzl(4-I)Gly][Nlys][NBzl(4-I)Gly][Nlys][NBzl(4-I)Gly]-NH2) :: 32

Where these numbers come from: paper PMC7481290
